biological target: Kelch-like ECH-associated protein 1 (Homo sapiens); test: Keap1-Nrf2 protein-protein interaction inhibitors, primary screen, biochemical, fluorescence polarization, single point (AID 504523); conditions: Keap1 Kelch-Nrf2 peptide fluorescence polarization, 1536-well; at 9.4 µM; active compounds read high;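 also: human Keap1 Kelch domain with fluorescein labeled Nrf2 9mer peptide probe; 0% = neutral control wells and 100% = peptide positive control; higher means more block of Keap1 binding to Nrf2 peptide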
Among all 340,000 compounds or so, about 490 (0.14%) were called active. What follows is part of a selection rich in actives, with near analogues and random picks from the rest.
# inhibition listing for each entry below

# compound, measure.unit, inhibition
measured = [
    ("Cc1nc2ccccc2n1C(=O)N1CCOCC1", "%", -5.92),
    ("O=C(C[n+]1cc(Br)cc2ccccc21)c1ccc(F)cc1", "%", -7.79),
    ("COC(=O)C[n+]1cccc2ccccc21", "%", 36.4),
    ("COC(=O)Cc1c(-c2[nH]c3ccccc3c2CC(=O)OC)[nH]c2ccccc12", "%", -0.936),
    ("COc1ccc(C2NC(=O)C(=O)/C2=C(\\O)c2ccc(Cl)cc2)cc1OC (stereo unspecified)", "%", -0.168),
    ("CC1(C)C(C=C(Cl)Cl)C1C(=O)NC(O)C(=O)c1ccccc1 (stereo unspecified)", "%", 1.65),
]

----------
target: Kelch-like ECH-associated protein 1 (Homo sapiens); assay: Keap1-Nrf2 protein-protein interaction inhibitors, primary screen, biochemical, fluorescence polarization, single point (AID 504523); settings: Keap1 Kelch-Nrf2 peptide fluorescence polarization, 1536-well; at 9.4 µM; active compounds read high;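 also: human Keap1 Kelch domain with fluorescein labeled Nrf2 9mer peptide probe; 0% = neutral control wells and 100% = peptide positive control; higher means more block of Keap1 binding to Nrf2 peptide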
The campaign covered roughly 340,000 compounds. About 490 (0.14%) were called active. This excerpt belongs to a sample that is enriched for actives.

# compound, inhibition
data = [
    ("Cc1nc(CN(C)C(=O)CC2C(=O)NCCN2Cc2ccc(F)cc2)cs1 (stereo unspecified)", "-0.6% (inactive)"),
    ("CC(Sc1nnc(C2CC2)n1C1CC1)C(=O)Nc1ccc(C(N)=O)cc1 (stereo unspecified)", "-1.4% (inactive)"),
    ("Cc1ccc(Nc2nc(CSc3nnc(-c4ccncc4)n3-c3ccccc3C)cs2)cc1", "-6.12% (inactive)"),
    ("CCN(CC)CCCC(C)n1c2nc(=O)[nH]c(=O)c-2nc2cc(Cl)ccc21 (stereo unspecified)", "152% (active)"),
    ("O=S1(=O)CC/C(=N\\Nc2ccc(F)cc2)c2ccsc21", "3.88% (inactive)"),
    ("O=C(CNC(=O)c1ccc(Br)o1)NCC1CCCO1 (stereo unspecified)", "3.4% (inactive)"),
]

----------
target: Kelch-like ECH-associated protein 1 (Homo sapiens) (UniProt Q14145); assay: Keap1-Nrf2 protein-protein interaction inhibitors, primary screen, biochemical, fluorescence polarization, single point (AID 504523); conditions: Keap1 Kelch-Nrf2 peptide fluorescence polarization, 1536-well; at 9.4 µM; active compounds read high;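 also: human Keap1 Kelch domain with fluorescein labeled Nrf2 9mer peptide probe; 0% = neutral control wells and 100% = peptide positive control; higher means more block of Keap1 binding to Nrf2 peptide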
Sequence (Q14145 whole entry, looked up, the tested form may be a part): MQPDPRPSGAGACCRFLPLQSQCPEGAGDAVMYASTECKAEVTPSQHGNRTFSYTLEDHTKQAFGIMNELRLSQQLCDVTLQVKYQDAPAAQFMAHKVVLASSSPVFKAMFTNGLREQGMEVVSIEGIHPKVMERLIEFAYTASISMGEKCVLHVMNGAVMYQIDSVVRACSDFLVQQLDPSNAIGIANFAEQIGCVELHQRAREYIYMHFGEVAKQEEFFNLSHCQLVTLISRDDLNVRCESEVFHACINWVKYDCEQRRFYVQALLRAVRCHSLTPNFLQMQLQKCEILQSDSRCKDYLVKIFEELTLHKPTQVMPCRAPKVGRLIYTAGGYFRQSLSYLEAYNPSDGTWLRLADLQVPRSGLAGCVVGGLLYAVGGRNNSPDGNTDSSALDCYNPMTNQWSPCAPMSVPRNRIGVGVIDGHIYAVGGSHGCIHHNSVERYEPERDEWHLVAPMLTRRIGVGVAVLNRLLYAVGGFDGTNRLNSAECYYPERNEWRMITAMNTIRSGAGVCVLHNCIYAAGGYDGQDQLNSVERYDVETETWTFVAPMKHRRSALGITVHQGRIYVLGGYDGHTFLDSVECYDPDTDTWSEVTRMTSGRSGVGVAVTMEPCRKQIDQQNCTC
Among all 340,000 compounds or so, about 490 (0.14%) were called active. This is one part of a sample in which actives are shown more often than they occur.
# inhibition listing for each entry below

# smiles.data, inhibition, %
records = [
    ("Cn1c(CCNS(=O)(=O)c2ccc(F)cc2)nnc1SCc1cccnc1", -1.02),
    ("COc1cc(/C=N/N=C(\\N)c2nonc2N)cc(OC)c1OC", 1.13),
    ("COC(=O)c1ccc(COC(=O)c2c(C)nn(Cc3ccccc3Cl)c2Cl)o1", 5.7),
]
